Listed binders paired with reported MFI normalized to WT
- measured_on: T1, Human KLRF1 (human, UniProt Q9NZS2 1-231)
- T1 construct: also called hKLRF1
- T1 sequence: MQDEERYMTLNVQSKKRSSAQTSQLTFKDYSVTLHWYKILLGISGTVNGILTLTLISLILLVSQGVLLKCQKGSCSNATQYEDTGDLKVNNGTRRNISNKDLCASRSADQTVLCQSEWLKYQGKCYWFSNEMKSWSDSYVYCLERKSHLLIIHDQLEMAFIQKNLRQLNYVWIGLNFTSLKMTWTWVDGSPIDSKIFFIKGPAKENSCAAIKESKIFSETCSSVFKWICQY
- run_description: flow, Jurkat, 100 nM Ab
Format: numeric value only, no unit, no commentary.

Known results for binders:
binder	MFI normalized to WT
KW1.2.1 (antibody, V domains shown) VH: EVQLVESGGGLVQPGGSLRLSCAASGSTFSSYAMSWVRQAPGKGLEWVSTISGSGGSTYYADSVKGRFTISRDNSRNTLYLQMNSLRAEDTAVYYCARGGLIPSGFDYWGQGTLVTVSS VL: DIQMTQSPSSPSASVGDRVTITCRASQSISSYLNWYQQKPGKAPKLLIYAASSLLSGVPSRFSGSGSGTDFTLTISSLQPEDFATYYCQQTYSTPLTFGQGTKVEIK	1.14
KW9.3.3 (antibody, V domains shown) VH: EVQLVESGGGLVQPGGSLRLSCAASGFTFSSYAMSWVRQAPGKGLEWVSAISGSGGRTYYADSVKGRFTISRDNSKNTLYLQMNSLRAEDTAMYYCARGPGYMYLYGDSFFEYWGQGTLVTVSS VL: DIQMAQSPSSLSASVGDRVTITCRASQGISSYLNWYQQKPGKAPKLLIYAASSLQSGVPSRFSGSGYGTDFTLTISSLQPEDFATYYCQQSYSTPLTFGQGTKVEIK	0.8
KW1.3.12 (antibody, human IgG1, V domains shown) VH: EVQLVESGGGLVQPGGSLRLSCAASGFTFSSYAMSWVRQAPGKGLEWVSTISGSGGSTYYADSVKGRFTISRDNSRNTLYLQMNSLRAEDTAVYYCARGGLIPSGFDYWGQGTLVTVSS VL: DIQMTQSPSSLSASVGDRVTITCRASQSISSYLNWYQQKPGKAPKLLIYAASSLLSGVPSRFSGSGSGTDFTLTISSLQPEDFATYYCQQTYSAPLTFGQGTKVEIK	1.02

Let's switch to this binder now.
# return recorded MFI normalized to WT for entry KM12.2.3 (antibody, human IgG1, V domains shown) VH: EVQLVESGGGLVQPGGSLRLSCAASGFTFSSYAMSWIRQAPGKGLEWVSAISGSGGSIYYADSVKGRFTISRDNSKNTLYLQMNSLRAEDTAVYYCARGYSDSYFYGPYYTFDYWGQGTLVTVSS VL: DIQMTQSPSSLSASVGDRVTITCRASQGISSYLNWYQQKPGKAPKLLIYAASSLQSGVSSRFSGSGSGTDFTLTISSLQPEDFATYYCQQSYNTPLTFGQGTKVEIK 1.18
